- protocol-text: protein stability index of a GFP-peptide fusion (yeast GPS) (PSI 1-4); higher = more stable; sorted into four equal gates, so the index is relative within each strain
- condition-info: doa10∆
Category key, based on recorded protein stability index: lower band: < 2; central band: ≥ 2 and < 3; upper band: ≥ 3

[[record]]
query_sequence = "IGVLNNSSESDEEESND [RPN13]"
label_class = "upper band"

[[record]]
query_sequence = "KILGKGRIPNVPVIVKA [RPL28]"
label_class = "central band"

[[record]]
query_sequence = "ERVTALKNCKISNINIP [SMC1]"
label_class = "upper band"

[[record]]
query_sequence = "ASRNVWSFYNGNVLIND [SNU114]"
label_class = "central band"

[[record]]
query_sequence = "VDIYSLPLISTDVLEIS [YMR129W/POM152]"
label_class = "central band"

[[record]]
query_sequence = "FVAKLAAQIFGSYNAFE [COR1]"
label_class = "lower band"

[[record]]
query_sequence = "KKTVAGGAYTVSTAAAA [RPL43A]"
label_class = "central band"

[[record]]
query_sequence = "RLKGDIFCVGSGQTFAY [PRE2]"
label_class = "central band"

[[record]]
query_sequence = "VPLAMGIVSVSDPQMKV [RPN1]"
label_class = "lower band"

[[record]]
query_sequence = "SRPGQSGRCDGYILEGE [RPS8A]"
label_class = "upper band"


Hello team, could you let me know which band the following sequence falls into: RKNRYVILQSDLEEAYA [RPT3]
central band

Hello team, could you let me know which band the following sequence falls into: NKASLAQYEVLANYLTS [QCR2]
central band

Hello team, could you let me know which band the following sequence falls into: KKKRKKKNKSAIDGIFG [RMP1]
central band

Hello team, could you let me know which band the following sequence falls into: KLDSKKILPTDIQLKNL [SRP68]
central band

Hello team, could you let me know which band the following sequence falls into: DEFPSELSDSDRQIINE [SIR4]
upper band
